Let's look at some molecules and their measured IC50.
system name: Cholinesterase (Equus caballus, UniProt P81908)
Sequence (P81908 whole entry): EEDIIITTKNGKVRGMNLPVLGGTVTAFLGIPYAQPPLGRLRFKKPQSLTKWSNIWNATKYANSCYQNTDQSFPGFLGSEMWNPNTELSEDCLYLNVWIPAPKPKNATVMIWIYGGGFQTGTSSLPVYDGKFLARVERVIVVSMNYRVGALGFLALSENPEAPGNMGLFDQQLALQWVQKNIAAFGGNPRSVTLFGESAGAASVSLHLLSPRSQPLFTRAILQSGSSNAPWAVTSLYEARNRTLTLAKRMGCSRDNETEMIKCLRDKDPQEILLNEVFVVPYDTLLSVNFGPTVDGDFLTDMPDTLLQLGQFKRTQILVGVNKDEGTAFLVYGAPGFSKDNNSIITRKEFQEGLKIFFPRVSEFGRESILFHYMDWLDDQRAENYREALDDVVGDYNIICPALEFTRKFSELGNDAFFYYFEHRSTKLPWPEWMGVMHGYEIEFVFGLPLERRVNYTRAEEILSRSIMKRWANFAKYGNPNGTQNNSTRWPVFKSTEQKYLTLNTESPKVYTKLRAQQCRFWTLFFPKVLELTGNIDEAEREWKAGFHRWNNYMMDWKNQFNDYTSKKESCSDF
assay text: Inhibition of equine serum BuChE using butyrylthiocholine chloride as substrate by Ellman's method
Please reply with the bare figure in µM and do not write the unit itself.

The cases that follow already have their IC50 on record.
smiles text | quantity kind | endpoint unit | endpoint value
CCN(C)C(=O)Oc1ccccc1C(=O)/C=C/c1ccc(F)cc1 | IC50 | µM | 12.4
CN(C)C(=O)Oc1ccccc1C(=O)/C=C/c1ccc(F)cc1 | IC50 | µM | 6.3

Ask | Return reported IC50; argument: `CCN(CC)C(=O)Oc1ccccc1C(=O)/C=C/c1ccc(F)cc1`
Reply | 18.9
